Target: T1, human TNFR2 on the surface of CHO-TNFR2 cells (human, UniProt P20333 23-461)
T1 construct: whole, on cells
T1 sequence (looked up): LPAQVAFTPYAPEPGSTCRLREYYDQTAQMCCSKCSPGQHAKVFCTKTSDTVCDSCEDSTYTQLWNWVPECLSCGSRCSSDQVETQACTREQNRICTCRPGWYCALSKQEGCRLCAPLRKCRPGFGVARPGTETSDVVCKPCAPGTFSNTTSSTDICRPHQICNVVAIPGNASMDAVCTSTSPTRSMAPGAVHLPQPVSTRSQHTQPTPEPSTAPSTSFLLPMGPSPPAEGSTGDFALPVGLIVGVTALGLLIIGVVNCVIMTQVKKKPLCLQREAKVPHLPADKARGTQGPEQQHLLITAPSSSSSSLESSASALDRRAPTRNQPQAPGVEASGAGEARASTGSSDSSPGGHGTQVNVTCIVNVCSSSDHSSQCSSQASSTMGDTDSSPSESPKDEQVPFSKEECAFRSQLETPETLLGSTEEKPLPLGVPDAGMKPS
Assay: flow cytometry on CHO-TNFR2 cells; area under the MFI fold curve
measurement.type: AUC
Respond with the number and no other words.

IN: What does the data say about its AUC? Entry: 224-Hu4 (antibody, V domains shown, Humanized form of #224; also called VH9 + VL6) VH: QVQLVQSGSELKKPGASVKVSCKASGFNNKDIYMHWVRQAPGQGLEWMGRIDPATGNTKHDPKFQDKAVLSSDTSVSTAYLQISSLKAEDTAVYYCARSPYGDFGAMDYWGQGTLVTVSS VL: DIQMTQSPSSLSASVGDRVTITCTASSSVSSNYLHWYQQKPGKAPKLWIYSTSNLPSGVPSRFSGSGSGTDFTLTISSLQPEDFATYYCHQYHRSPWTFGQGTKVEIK
OUT: 621

IN: I am curious: what AUC value has been reported for 219-Hu5 (antibody, V domains shown, also called VH7 + VL5) VH: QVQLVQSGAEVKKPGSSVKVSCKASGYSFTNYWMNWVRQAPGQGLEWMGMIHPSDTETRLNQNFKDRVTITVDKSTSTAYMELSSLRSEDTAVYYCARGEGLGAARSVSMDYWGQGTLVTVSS VL: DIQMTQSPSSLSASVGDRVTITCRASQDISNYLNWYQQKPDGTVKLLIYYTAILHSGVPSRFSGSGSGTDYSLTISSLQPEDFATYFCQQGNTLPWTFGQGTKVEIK ?
OUT: 481

IN: # AUC lookup, item 001-WT (antibody, V domains shown, Human-murine chimeric wild-type molecule; also called human-murine chimeric antibody WT of #001) VH: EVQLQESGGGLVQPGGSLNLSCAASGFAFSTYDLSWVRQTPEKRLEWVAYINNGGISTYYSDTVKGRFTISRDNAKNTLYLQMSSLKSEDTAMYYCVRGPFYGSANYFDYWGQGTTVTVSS VL: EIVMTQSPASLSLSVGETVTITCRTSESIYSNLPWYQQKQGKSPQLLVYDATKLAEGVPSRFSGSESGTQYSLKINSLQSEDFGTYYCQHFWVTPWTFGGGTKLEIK
OUT: 490
